Data provenance: PubChem BioAssay AID504339

Molecular target: Lysine-specific demethylase 4A (Homo sapiens) (UniProt O75164)
Sequence (O75164 whole entry, looked up, the tested form may be a part): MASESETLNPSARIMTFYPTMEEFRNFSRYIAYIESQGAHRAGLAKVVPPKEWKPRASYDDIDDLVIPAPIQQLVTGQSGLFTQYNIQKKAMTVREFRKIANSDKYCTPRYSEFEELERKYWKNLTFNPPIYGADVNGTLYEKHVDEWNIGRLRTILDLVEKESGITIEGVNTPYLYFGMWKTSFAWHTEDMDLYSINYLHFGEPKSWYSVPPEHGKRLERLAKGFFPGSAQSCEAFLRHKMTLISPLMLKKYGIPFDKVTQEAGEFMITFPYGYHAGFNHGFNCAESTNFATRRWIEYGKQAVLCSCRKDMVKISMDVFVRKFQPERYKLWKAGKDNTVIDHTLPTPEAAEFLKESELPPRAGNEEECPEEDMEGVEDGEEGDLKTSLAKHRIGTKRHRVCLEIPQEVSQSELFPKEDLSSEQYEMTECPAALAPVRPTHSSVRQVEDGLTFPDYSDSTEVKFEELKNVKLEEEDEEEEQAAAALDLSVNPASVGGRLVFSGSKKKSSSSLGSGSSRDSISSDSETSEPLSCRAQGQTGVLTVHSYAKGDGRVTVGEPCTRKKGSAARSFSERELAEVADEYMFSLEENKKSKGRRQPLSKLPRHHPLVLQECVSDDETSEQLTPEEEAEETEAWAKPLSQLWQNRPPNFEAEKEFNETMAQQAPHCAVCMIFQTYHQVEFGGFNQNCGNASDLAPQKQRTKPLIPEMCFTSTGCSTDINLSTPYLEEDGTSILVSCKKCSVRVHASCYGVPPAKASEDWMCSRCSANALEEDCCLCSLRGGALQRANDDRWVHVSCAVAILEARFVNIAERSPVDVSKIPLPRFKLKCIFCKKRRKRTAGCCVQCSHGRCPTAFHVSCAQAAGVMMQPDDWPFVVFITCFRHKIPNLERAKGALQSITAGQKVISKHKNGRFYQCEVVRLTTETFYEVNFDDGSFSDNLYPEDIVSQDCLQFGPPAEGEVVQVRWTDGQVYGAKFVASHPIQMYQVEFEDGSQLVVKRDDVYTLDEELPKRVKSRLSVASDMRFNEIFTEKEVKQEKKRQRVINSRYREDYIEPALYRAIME
Assay: qHTS Assay for Inhibitors of JMJD2A-Tudor Domain; further: nearly all actives have a fitted effect of over 50% in size
Settings: AlphaScreen JMJD2A-Tudor / H3K4me3 peptide binding; series mostly up to 114 µM
The whole screen tested about 390,000 compounds, of which about 17,000 (4.4%) were called active. About 8% were inconclusive and are not listed. The call rests on the fitted dose curve; in most records, active means well fitted inhibition curve with a large enough effect; inconclusive means small, poorly fitted or top-dose-only effect; inactive means no such curve, though single readings can be large or run the other way. Only a selection was taken, and actives are over-represented in it overall.
Allowed answers: active, inactive

Here are 8 compounds together with their reported answers.
                                   compound     class
0  CCN1CCN(C(=O)N[C@@H](C(=O)N[C@@H]2C(=O)N3C(C(=O)O)=C(CSc4nnnn4C)CS[C@H]23)c2ccc(O)cc2)C(=O)C1=O  inactive
1  CCOc1ccc(S(=O)(=O)NCCCn2ccnc2)cc1NC(C)=O  inactive
2  O=C(COc1ccccc1Cl)Nc1ccc2nc(SCC(=O)N3CCCC3)sc2c1  inactive
3      Cc1ccc2c(Cl)c(C(=O)NCCCn3ccnc3)sc2c1  inactive
4  CCN(CC)c1cc(NC2CCCCC2)c2c3c(onc13)-c1ccccc1C2=O    active
5     CCN(CC)CCNc1ncnc2c1cnn2-c1cc(Cl)ccc1C  inactive
6                    Brc1ccc(OCCn2ccnc2)cc1  inactive
7    N#Cc1c(-c2ccccc2)c(-c2ccccc2)n[nH]c1=O  inactive

Tell me the assay call for O=C(O)c1ccc(-n2nc(-c3ccccc3)c3ccccc3c2=O)cc1 please.
inactive

// outcome(item) with item = Cc1nnc(SCC2=C(C(=O)O)N3C(=O)C(NC(=O)Cn4nc(C)c(Cl)c4C)C3SC2)s1 (stereo not given)
inactive
